Hey, just so you know, these numbers are from patent US11730778B2.

- System: intestinal microbiota (fecal samples) of human subjects
- EXPERIMENTAL PROTOCOL: in-vitro fermentations of fecal samples (intestinal microbiota-representing microarray) with phytonutrient precursor compounds; also: key: conversion (+); partial conversion (±); no conversion (−)
- Format: in vitro ADME
- STUDY CONDITIONS: fecal sample of Subject 10 (S10), in-vitro fermentation
RECORDED METRIC: Phytonutrient Producer Status: conversion of the phytonutrient precursor compound, S10

COMPOUND	OBSERVED
O=c1c(O)c(-c2ccc(O)c(O)c2)oc2cc(O)cc(O)c12	+
COc1ccc([C@@H]2CC(=O)c3c(O)cc(O[C@@H]4O[C@H](CO[C@@H]5O[C@@H](C)[C@H](O)[C@@H](O)[C@H]5O)[C@@H](O)[C@H](O)[C@H]4O)cc3O2)cc1O	+
OC[C@H]1O[C@@H](Oc2cc3c(O)cc(O)cc3[o+]c2-c2ccc(O)c(O)c2)[C@H](O)[C@@H](O)[C@@H]1O [Cyanidin-3-glucoside]	+

----------
- Tested on: intestinal microbiota (fecal samples) of human subjects
- EXPERIMENTAL PROTOCOL: in-vitro fermentations of fecal samples (intestinal microbiota-representing microarray) with phytonutrient precursor compounds; also: key: conversion (+); partial conversion (±); no conversion (−)
- Format: in vitro ADME
- STUDY CONDITIONS: fecal sample of Subject 6 (S6), in-vitro fermentation
RECORDED METRIC: Phytonutrient Producer Status: conversion of the phytonutrient precursor compound, S6

Examples with answers:
MOLECULE	OBSERVED
O=c1oc2c(O)c(O)cc3c(=O)oc4c(O)c(O)cc1c4c23	−
OC[C@H]1O[C@@H](Oc2cc3c(O)cc(O)cc3[o+]c2-c2ccc(O)c(O)c2)[C@H](O)[C@@H](O)[C@@H]1O [Cyanidin-3-glucoside]	+
COc1ccc([C@@H]2CC(=O)c3c(O)cc(O[C@@H]4O[C@H](CO[C@@H]5O[C@@H](C)[C@H](O)[C@@H](O)[C@H]5O)[C@@H](O)[C@H](O)[C@H]4O)cc3O2)cc1O	+
O=c1c(O)c(-c2ccc(O)c(O)c2)oc2cc(O)cc(O)c12	+
COc1cc(C[C@@H](CO[C@@H]2O[C@H](CO)[C@@H](O)[C@H](O)[C@H]2O)[C@H](CO[C@@H]2O[C@H](CO)[C@@H](O)[C@H](O)[C@H]2O)Cc2ccc(O)c(OC)c2)ccc1O [Secoisolariciresinol diglucoside]	±

I'm curious: which Phytonutrient Producer Status: conversion of the phytonutrient precursor compound, S6 was measured for Oc1cc(O)c2c(c1)O[C@H](c1cc(O)c(O)c(O)c1)[C@H](O)C2 [Epigallocatechol] tested on intestinal microbiota (fecal samples) of human subjects?
+

----------
- System: intestinal microbiota (fecal samples) of human subjects
- EXPERIMENTAL PROTOCOL: in-vitro fermentations of fecal samples (intestinal microbiota-representing microarray) with phytonutrient precursor compounds; also: key: conversion (+); partial conversion (±); no conversion (−)
- Type: in vitro ADME
- STUDY CONDITIONS: fecal sample of Subject 3 (S3), in-vitro fermentation
RECORDED METRIC: Phytonutrient Producer Status: conversion of the phytonutrient precursor compound, S3

Examples with answers:
COMPOUND	OBSERVED
COc1ccc([C@@H]2CC(=O)c3c(O)cc(O[C@@H]4O[C@H](CO[C@@H]5O[C@@H](C)[C@H](O)[C@@H](O)[C@H]5O)[C@@H](O)[C@H](O)[C@H]4O)cc3O2)cc1O	+
OC[C@H]1O[C@@H](Oc2cc3c(O)cc(O)cc3[o+]c2-c2ccc(O)c(O)c2)[C@H](O)[C@@H](O)[C@@H]1O [Cyanidin-3-glucoside]	+
COc1cc(C[C@@H](CO[C@@H]2O[C@H](CO)[C@@H](O)[C@H](O)[C@H]2O)[C@H](CO[C@@H]2O[C@H](CO)[C@@H](O)[C@H](O)[C@H]2O)Cc2ccc(O)c(OC)c2)ccc1O [Secoisolariciresinol diglucoside]	±
Oc1cc(O)c2c(c1)O[C@H](c1cc(O)c(O)c(O)c1)[C@H](O)C2 [Epigallocatechol]	±
O=c1c(O)c(-c2ccc(O)c(O)c2)oc2cc(O)cc(O)c12	+

Proceed to the following item.
I'm curious: which Phytonutrient Producer Status: conversion of the phytonutrient precursor compound, S3 was measured for O=c1oc2c(O)c(O)cc3c(=O)oc4c(O)c(O)cc1c4c23 tested on intestinal microbiota (fecal samples) of human subjects?
±
